# Protocol Description: NCI Yeast Anticancer Drug Screen. Data for the mgt1 strain (AID 153)
# Cond: S. cerevisiae mgt1 mutant growth inhibition; at 33.0 µM
About 79,000 compounds went through this panel and 15% of them were active in at least one assay; those are over-represented in the sample as a whole. Active and inactive are the calls of the source. Rule as the data show it: active = growth inhibition above about 70%; inactive = the rest.
Field 'call' accepts yes (1) for active, no (0) for inactive

// below: answered molecules
molecule="CC(CN(C)C)C(=O)/C=C/c1ccc(Cl)c(Cl)c1 (stereo not given)" class="yes (1)"
molecule=O=C(Oc1ccc([N+](=O)[O-])cc1)c1ccc([N+](=O)[O-])cc1 class="no (0)"
molecule=CC1=C(C)C(=O)C2=C(OCCO2)C1=O class="no (0)"

q: What is the recorded call for this molecule in the test? COc1ccc(C(OCC2OC(n3cnc4c(=O)n(Cc5ccccc5[N+](=O)[O-])nnc43)C(O)C2O)(c2ccccc2)c2ccc(OC)cc2)cc1 (stereo not given)
a: no (0)

q: Could you please tell me the result logged for "CO[C@@]1([C@@H](Cl)c2ccccc2)C(=O)N(C)/C(=C\c2ccccc2)C(=O)N1C" in this assay?
a: no (0)

q: Could you kindly confirm the outcome this assay logged for "COc1c2c(c3c(c1CCC(=O)O)OC(C)(C)C=C3)OC(C)(C)C=C2" ?
a: no (0)

q: Tell me the assay call for "Cc1ccc(C)c(C(=N)c2ccccc2Cc2ccccc2)c1" please.
a: yes (1)

q: I'd appreciate the recorded outcome for "Nc1ccc(N=Nc2ccc(-c3ccc(O)cc3)cc2)c2ccc(S(=O)(=O)O)cc12" from this test.
a: no (0)

q: # outcome recorded in this test, key = "COC(=O)C(=O)CC(=O)c1cccc(OC)c1"
a: no (0)

q: I'd appreciate the recorded outcome for "COC(=O)C1=C(C(=O)OC)CC(n2nnc(C(=O)OC)c2C(=O)OC)=CC1" from this test.
a: no (0)

----------
Each item that follows carries a reported growth inhibition.
# Protocol Description: NCI Yeast Anticancer Drug Screen. Data for the bub3 strain (AID 167)
# Cond: S. cerevisiae bub3 mutant strain, at 11.0 µM, active compounds read high
Compounds without any hit were thinned out: in the full panel of roughly 79,000, 15% have a hit.
Give the number; % is assumed, so skip it.

# annotated cases, reported growth inhibition shown
compound=CC(C)(C)c1ccc2c(c1)C(=O)c1ccccc1C2=O readout_label="growth inhibition" quantitative_result=65
compound="C=C(C(=O)OC)N1C(=O)CC(C)C1=O (configuration not stated)" readout_label="growth inhibition" quantitative_result=9
compound=CC(=O)CCC1=C(C)C(=O)C(=O)C(C)=C1O readout_label="growth inhibition" quantitative_result=6
compound=Cc1cc(Cl)ccc1NC(=O)/C(Cl)=C(/Cl)C(=O)O readout_label="growth inhibition" quantitative_result=12

q: Quick one: growth inhibition of O=CC1(F)CC1(c1ccccc1)c1ccccc1 (configuration not stated) ?
a: -6

q: Suppose we examine the compound "O=[N+]([O-])c1ccc(S(=O)(=O)Cc2ccccc2)c([N+](=O)[O-])c1" ; what growth inhibition value has been reported?
a: 44

q: I'd like to know its growth inhibition. The compound in question is "O=C(O)C(=Cc1ccc(-c2ccccc2)cc1)C(=O)O"
a: 24

q: growth inhibition for "Oc1ccc(C2(c3ccc(O)cc3)CCCC2)cc1" ?
a: 27

q: Please report the recorded growth inhibition for "Cc1ccc(S(=O)(=O)Nc2cccc3cccnc23)cc1" .
a: -3

q: Entry under review: C=CC(C)(C)N1C(=O)C(C(C)=O)=C(O)C1Cc1c[nH]c2ccccc12 (configuration not stated) . Reported growth inhibition?
a: 0

q: Consider the compound c1ccc(-c2cc(C3CO3)c3ccccc3n2)cc1 (configuration not stated) and give its measured growth inhibition.
a: 10

q: Given the compound CC(CN(C)C)C(=O)/C=C/c1ccc(Cl)c(Cl)c1 (configuration not stated) , what is its reported growth inhibition?
a: 16

----------
# Protocol Description: NCI Yeast Anticancer Drug Screen. Data for the rad18 strain (AID 177)
# Cond: S. cerevisiae rad18 mutant growth inhibition; at 3.7 µM; active compounds read high
The panel holds about 79,000 compounds, 15% with a hit somewhere; the sample as a whole holds those more often.
Listed molecules paired with reported growth inhibition
A number alone suffices; assume %.

A selection of reference data follows.
molecule=O=C1C=C(NCCc2cc(Br)c(O)c(Br)c2)C(=O)c2ncccc21 readout_units=% quantitative_result=54
molecule=O=Cc1ccccc1C=O readout_units=% quantitative_result=-5
molecule="CC1(C)C(O)OC(O)C1(C)C (configuration not stated)" readout_units=% quantitative_result=2
molecule=O=c1cccccc1[O-].O=c1cccccc1[O-].O=c1cccccc1[O-].[Eu+3] readout_units=% quantitative_result=15
molecule=C/C(=N\Sc1ccccc1)c1ccccc1O readout_units=% quantitative_result=0
molecule="N#CC1OB(O)c2ccccc21 (configuration not stated)" readout_units=% quantitative_result=-1

We now examine a further molecule.
q: Requested read-out: growth inhibition. Entry: "Oc1ccc(N=Nc2ccc(Cl)cc2)cc1"
a: 3

----------
# Protocol Description: NCI Yeast Anticancer Drug Screen. Data for the mgt1 strain (AID 153)
# Cond: S. cerevisiae mgt1 mutant growth inhibition; at 100.0 µM; active compounds read high
About 79,000 compounds went through this panel and 15% of them were active in at least one assay; those are over-represented in the sample as a whole. Residues, ends and D or L forms follow the SMILES beside them. *: point of attachment. Fmoc = O=C(OCC1c2ccccc2-c2ccccc21)*; Boc = CC(C)(C)OC(=O)*
Readout Label: growth inhibition (%)
Provide the reading as a plain figure in %.

# annotated cases, reported growth inhibition shown
molecule=O=C(O)c1ccc2cc(Cl)c3ccccc3c2c1 readout_label="growth inhibition" quantitative_result=60
molecule=O=C(O)CNC(c1ccccc1)(c1ccccc1)c1ccccc1 readout_label="growth inhibition" quantitative_result=96
molecule="O=C1NC(c2cccc(OCc3ccccc3)c2)Nc2ccccc21 (centres undefined)" readout_label="growth inhibition" quantitative_result=-51
molecule=CC1(C)CC(=O)C(C(=O)Nc2cccs2)=C(O)C1 readout_label="growth inhibition" quantitative_result=98
molecule=Cc1ccc([N+](=O)[O-])c2c(NCCC[N+](C)(C)[O-])c3ccccc3nc12 readout_label="growth inhibition" quantitative_result=1
molecule=c1ccc2c(c1)ccn2CCc1c[nH]c2ccccc12 readout_label="growth inhibition" quantitative_result=96
molecule="CC(C)[Si]1(C(C)C)OCC2OC(n3cnc4c(N)ncnc43)C(N)C2O[Si](C(C)C)(C(C)C)O1 (centres undefined)" readout_label="growth inhibition" quantitative_result=98
molecule="O=C(Cc1ccccc1)NN1C(=O)C(Cl)C1c1cc(Br)cc(Br)c1O (centres undefined)" readout_label="growth inhibition" quantitative_result=91

q: growth inhibition lookup needed for "COc1cc([N+](=O)[O-])c2ncccc2c1Br" , thanks.
a: -4

q: Record request: growth inhibition value, item "c1cc(-c2sc(-c3ccncc3)c(-c3ccncc3)c2-c2ccncc2)ccn1"
a: 87

q: Returns the measured growth inhibition for the input molecule. Input: "O=C1Nc2ccc(Br)cc2C1=Nc1cccnc1"
a: -14

q: GET /values?readout=growth inhibition&item= CC(C)(C)OC(=O)NCCCCC(NC(=O)C(Cc1c[nH]c2ccccc12)NC(=O)OCC1c2ccccc2-c2ccccc21)C(=O)O (centres undefined) (Fmoc-Trp-Lys(Boc)-OH; configuration not given here)
a: 75

q: Param item = "O=C(CCSC1=NCCCN1)c1ccc(F)cc1" ; retrieve measured growth inhibition.
a: 99

q: Fill in: growth inhibition of "OB(O)c1ccccc1C#Cc1ccccc1" is ___
a: 18

q: Query: growth inhibition; subject: "NCCOc1ccc(/C(=C(/Cl)c2ccccc2)c2ccccc2)cc1"
a: 96

q: Recorded growth inhibition for "Cc1ccc(S(=O)(=O)NC(=O)C2C(=O)CC3(CCCCC3)CC2=O)cc1" , please?
a: 85

q: What value of growth inhibition has been reported for the following molecule? "Cc1oc2ccccc2c(=O)c1Cn1nnc2ccccc21"
a: 26

q: Which growth inhibition value belongs to O=C1CC(C(O)(C(F)(F)F)C(F)(F)Cl)CCC1C(O)(C(F)(F)F)C(F)(F)Cl (centres undefined) ?
a: 97

q: Returns the measured growth inhibition for the input molecule. Input: CCCCCCCCCCCCCCCCCCNc1nc(=O)n(C2CC(OP(=O)(O)OCC3OC(n4cc(F)c(=O)[nH]c4=O)CC3O)C(CO)O2)cc1F (centres undefined)
a: 77

q: For the molecule COc1ccc(C2CC(C)(N3CCCC3)Oc3cc4c(cc32)OCO4)cc1 (centres undefined) , what growth inhibition is on record?
a: 85

----------
# Protocol Description: NCI Yeast Anticancer Drug Screen. Data for the cln2 rad14 strain (AID 165);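 also: 0% = growth equal to vehicle treated cultures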
# Cond: S. cerevisiae cln2 rad14 strain, at 50.0 µM (retest, dose inferred, filed as 5.0), active compounds read high
This is part of a sample that, as a whole, favours compounds with a hit. Of some 79,000 tested, about 15% had one in any assay.
Below, each entry is listed alongside its reported growth inhibition.
Number in %, nothing else.

Below are worked cases with known answers.
structure=COc1ccccc1NC(=O)c1ccc(Cl)cc1 readout_label="growth inhibition" readout_units=% quantitative_result=75
structure=Cc1c(Cl)c(C)c(Cl)c(O)c1Cl readout_label="growth inhibition" readout_units=% quantitative_result=100
structure=CCOc1ccc(N)c(S)c1 readout_label="growth inhibition" readout_units=% quantitative_result=98

q: For the compound shown here, "CCCCCCNCCCNc1c2ccccc2nc2cccc([N+](=O)[O-])c12" , give the reported growth inhibition.
a: 99

q: Recorded growth inhibition for "O=C(C(Cl)=C(N1CCCCC1)N1CCCCC1)C(Cl)Cl" , please?
a: 99

q: I have this compound here, "COC(=O)C(=O)CC(=O)c1cccc(OC)c1" , and I need its recorded growth inhibition.
a: -45

q: Recorded growth inhibition of "COc1ccc(-c2cc(-c3cc(C)cc(Cl)c3O)nc3[nH]c(=S)[nH]c(=S)c23)cc1" , please.
a: 76
